Target: bovine COX-1 (Ovis aries, UniProt P05979)
Sequence (P05979 25-600): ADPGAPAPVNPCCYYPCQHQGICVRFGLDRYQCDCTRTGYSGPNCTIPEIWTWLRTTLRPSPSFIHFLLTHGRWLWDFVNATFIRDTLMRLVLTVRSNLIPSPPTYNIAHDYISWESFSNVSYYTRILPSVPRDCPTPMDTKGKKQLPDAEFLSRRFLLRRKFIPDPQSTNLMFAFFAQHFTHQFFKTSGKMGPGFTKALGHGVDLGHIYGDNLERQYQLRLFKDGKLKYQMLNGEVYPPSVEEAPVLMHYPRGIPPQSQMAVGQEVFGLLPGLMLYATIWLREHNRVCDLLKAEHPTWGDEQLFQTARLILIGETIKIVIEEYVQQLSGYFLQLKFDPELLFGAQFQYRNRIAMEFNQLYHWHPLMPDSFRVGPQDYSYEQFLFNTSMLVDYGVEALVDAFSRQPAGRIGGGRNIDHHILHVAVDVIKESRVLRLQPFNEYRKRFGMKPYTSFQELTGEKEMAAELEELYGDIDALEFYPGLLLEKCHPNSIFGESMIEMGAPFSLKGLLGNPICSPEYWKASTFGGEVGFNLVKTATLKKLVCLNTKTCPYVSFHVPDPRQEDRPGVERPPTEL
pIC50: −log10 of the molar value.
valueKind: pIC50

Nc1ncc(Sc2nnc(COc3ccc4ccccc4c3)n2N=Cc2ccccc2)o1 [Compound 11a]: 4.91
Oc1ccccc1C=Nn1c(S)nnc1COc1ccc2ccccc2c1: 5.12
Sc1nnc(COc2ccc3ccccc3c2)n1N=Cc1ccccc1: 5.16
COc1ccc(C=Nn2c(COc3ccc4ccccc4c3)nnc2Sc2cnc(N)o2)cc1 [Compound 11d]: 4.94
COc1ccc(C=Nn2c(COc3ccc4ccccc4c3)nnc2SC(=O)CCl)cc1 [Compound 10d]: 4.99
COc1ccc(C=Nn2c(S)nnc2COc2ccc3ccccc3c2)cc1: 5.10
O=C(CCl)Sc1nnc(COc2ccc3ccccc3c2)n1N=Cc1ccccc1 [Compound 10a]: 5.01
Nc1ncc(Sc2nnc(COc3ccc4ccccc4c3)n2N=Cc2ccccc2O)s1 [Compound 12b]: 4.92
Nc1ncc(Sc2nnc(COc3ccc4ccccc4c3)n2N=Cc2ccccc2O)o1 [Compound 11b]: 4.97

###

Target: human recombinant COX-2 (Homo sapiens, UniProt P35354)
Construct: purchased Cayman Chemical 560131
Test: In vitro COX-2 inhibition, enzyme immunoassay kit (Cayman item no. 560131)
Type: biochemical
valueKind: COX-2 S.I. (selectivity index, COX-1 IC50/COX-2 IC50)

Worked examples follow.
Nc1ncc(Sc2nnc(COc3ccc4ccccc4c3)n2N=Cc2ccccc2)o1 [Compound 11a]: 154.6
O=[N+]([O-])c1cccc(C=Nn2c(S)nnc2COc2ccc3ccccc3c2)c1 [Compound 9c]: 72.5

[P] Nc1ncc(Sc2nnc(COc3ccc4ccccc4c3)n2N=Cc2ccccc2O)o1 [Compound 11b]
[Q] COc1ccc(C=Nn2c(COc3ccc4ccccc4c3)nnc2Sc2cnc(N)o2)cc1 [Compound 11d]
Smaller COX-2 S.I. (selectivity index, COX-1 IC50/COX-2 IC50) value, P vs Q ? Give the label under which the chosen entry appears.
P

###

Target: human recombinant COX-2 (Homo sapiens, UniProt P35354)
Construct: purchased Cayman Chemical 560131
Sequence (P35354 18-604): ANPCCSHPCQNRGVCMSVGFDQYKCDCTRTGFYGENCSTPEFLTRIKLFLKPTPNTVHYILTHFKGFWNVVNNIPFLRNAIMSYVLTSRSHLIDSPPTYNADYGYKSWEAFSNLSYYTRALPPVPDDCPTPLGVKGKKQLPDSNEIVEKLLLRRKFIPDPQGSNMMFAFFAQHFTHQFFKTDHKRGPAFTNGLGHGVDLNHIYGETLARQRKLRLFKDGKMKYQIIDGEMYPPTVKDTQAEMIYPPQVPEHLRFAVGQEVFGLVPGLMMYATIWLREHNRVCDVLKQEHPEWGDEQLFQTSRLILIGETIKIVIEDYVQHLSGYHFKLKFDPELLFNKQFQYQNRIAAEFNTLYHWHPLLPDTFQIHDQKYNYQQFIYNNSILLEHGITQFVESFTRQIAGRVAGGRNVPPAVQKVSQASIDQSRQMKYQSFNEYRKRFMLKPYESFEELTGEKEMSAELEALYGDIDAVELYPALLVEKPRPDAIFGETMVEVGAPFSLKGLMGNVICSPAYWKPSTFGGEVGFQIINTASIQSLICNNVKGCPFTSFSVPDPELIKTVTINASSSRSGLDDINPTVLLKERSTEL
Experiment: In vitro COX-2 inhibition, enzyme immunoassay kit (Cayman item no. 560131)
Type: biochemical
Details: pIC50 = −Log (IC50) of the COX-2 IC50; read-out: Activity (experimental pIC50, COX-2) (converted)
valueKind: IC50 (nM)

[A] Sc1nnc(COc2ccc3ccccc3c2)n1N=Cc1ccccc1
[B] Nc1ncc(Sc2nnc(COc3ccc4ccccc4c3)n2N=Cc2ccccc2)o1 [Compound 11a]
[C] O=[N+]([O-])c1cccc(C=Nn2c(S)nnc2COc2ccc3ccccc3c2)c1
[D] Nc1ncc(Sc2nnc(COc3ccc4ccccc4c3)n2N=Cc2cccc([N+](=O)[O-])c2)s1 [Compound 12c]
From the items above, give an ordering by IC50 that starts at the lowest reported number. Reply format: the labels, ordered as requested.
D, B, C, A
(D: 40.1 nM, B: 80 nM, C: 130 nM, A: 220 nM)
